Biological target: BTK (Homo sapiens, UniProt Q06187)
Construct: High control=Cell group with added DMSO and without compound, indicating microplate readings without BTK degradation; endogenous in cells; host or cells: TMD-8 cells
Sequence (Q06187 whole entry): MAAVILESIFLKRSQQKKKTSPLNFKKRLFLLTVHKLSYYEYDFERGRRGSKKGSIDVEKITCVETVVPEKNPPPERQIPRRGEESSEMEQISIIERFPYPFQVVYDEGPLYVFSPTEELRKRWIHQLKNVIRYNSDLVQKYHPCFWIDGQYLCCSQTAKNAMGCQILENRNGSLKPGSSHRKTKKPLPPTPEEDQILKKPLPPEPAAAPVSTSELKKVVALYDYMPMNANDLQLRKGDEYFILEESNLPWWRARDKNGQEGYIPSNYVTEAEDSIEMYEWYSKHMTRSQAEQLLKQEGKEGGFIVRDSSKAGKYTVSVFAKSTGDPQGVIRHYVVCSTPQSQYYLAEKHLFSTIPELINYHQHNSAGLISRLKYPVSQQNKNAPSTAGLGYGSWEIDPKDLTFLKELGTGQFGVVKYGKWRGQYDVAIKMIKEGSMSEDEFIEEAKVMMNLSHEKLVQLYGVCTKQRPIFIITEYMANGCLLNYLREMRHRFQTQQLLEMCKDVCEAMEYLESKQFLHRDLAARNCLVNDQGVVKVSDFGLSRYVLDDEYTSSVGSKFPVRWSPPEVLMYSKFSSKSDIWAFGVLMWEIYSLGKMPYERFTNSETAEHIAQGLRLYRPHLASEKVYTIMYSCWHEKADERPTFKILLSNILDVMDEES
Experiment: Cell Degradation: BTK degradation in TMD-8 cells, HTRF assay
Type: cell-based
Conditions: 6 h treatment, IC50 (DC50) of BTK degradation
Description: TMD-8 cells are treated with compounds in 0.2% DMSO, dilution is done according to the following protocol: (1) make 500× stock solution in DMSO from 1 mM by 6-fold dilution, total 8 doses were included; (2) make 2× solution in cell culture medium by transferring 0.5 μl 500× stock solution into 125 μl medium; (3) 15 μl of 2× solution is added to cells and incubate for 6 h. […]
Parameter measured: DC50 (nM)

Smiles notation: CC(C)(C)c1noc(C(=O)NCc2ccc(-c3ncnc4[nH]c(-c5ccc(N6CCN(CC7CCN(c8ccc(N9CCC(=O)NC9=O)cc8)CC7)CC6)nc5)cc34)cc2F)n1
Unit annotation: nM
Recorded result: 0.51
//
Smiles notation: CC(C)(C)c1noc(C(=O)NCc2ccc(-c3ncnc4[nH]c(-c5cnn(C6CCN(CC7CCN(c8ccc(N9CCC(=O)NC9=O)cc8)CC7)CC6)c5)cc34)cc2F)n1
Unit annotation: nM
Recorded result: 0.55
//
Smiles notation: Cc1cc(-c2ncnc3[nH]c(-c4ccc(N5CCN(CC6CCN(c7ccc(N8CCC(=O)NC8=O)c(C)c7)CC6)CC5)cc4)nc23)ccc1[C@@H](C)NC(=O)c1nc(C(C)(C)C)no1
Unit annotation: nM
Recorded result: 0.69
